Listed here: molecules with reported MIC for Bacillus subtilis ATCC 6633.
Give the number; µg/mL is assumed, so skip it.

Return MIC (reported value) for this molecule: `CCn1cc(C(=O)O)c(=O)c2cnc(-n3ccnc3)cc21` 100

Return MIC (reported value) for this molecule: `CCn1cc(C(=O)O)c(=O)c2cc(F)c(-n3ccnc3)c(F)c21` 0.1

Return MIC (reported value) for this molecule: `CCn1cc(C(=O)O)c(=O)c2cc(F)c(-n3cnc(C)c3)c(F)c21` 0.05

Return MIC (reported value) for this molecule: CC1COc2c(-n3ccnc3)c(F)cc3c(=O)c(C(=O)O)cn1c23 (centres unmarked) 0.1

Return MIC (reported value) for this molecule: `CCn1cc(C(=O)O)c(=O)c2cc(F)c(N3CCNCC3)cc21` 0.39

Return MIC (reported value) for this molecule: `CCn1cc(C(=O)O)c(=O)c2cc(F)c(N3CCN(C)CC3)c(F)c21` 0.2

Return MIC (reported value) for this molecule: `CCn1cc(C(=O)O)c(=O)c2cc(F)c(N3CCN(C)CC3)cc21` 0.2

Return MIC (reported value) for this molecule: `CCn1cc(C(=O)O)c(=O)c2cc(F)c(N3CCNCC3)c(F)c21` 0.39
